Reference source for all entries: patent US20200038513A1

TEST DETAILS: Pharmacokinetics of intraperitoneal or intravenous injection in CD1 mice
Assay type: in vivo
CONDITIONS USED: male, CD1, mouse, plasma, iv, 1 mg/kg, IV 1.0 mg/kg, CD1 mice plasma, 0.25 h; read-out: Conc. (ng/mL) Mouse 1
Description: The pharmacokinetics of exemplary compounds 103, 107, 100, 101, and 102 was examined for intraperitoneal and intravenous administration. The desired serial concentrations of working solutions were achieved by diluting stock solution (1 mg/mL in DMSO) of analyte with methanol. […] 10 μL of the diluted supernatant was injected into the LC/MS/MS system for quantitative analysis. […]
PARAMETER: concentration at 0.25 h (ng/mL)

Cc1ncsc1-c1ccc(CNC(=O)[C@@H]2C[C@@H](O)CN2C(=O)[C@@H](NC(=O)CCOCCOc2ccc(Nc3ncc(C(F)(F)F)c(NCc4cccc(N(C)S(C)(=O)=O)c4)n3)cc2)C(C)(C)C)cc1 [Compound 102] | 55.9
Cc1ncsc1-c1ccc(CNC(=O)[C@@H]2C[C@@H](O)CN2C(=O)[C@@H](NC(=O)COCCOc2ccc(Nc3ncc(C(F)(F)F)c(NCc4cccc(N(C)S(C)(=O)=O)c4)n3)cc2)C(C)(C)C)cc1 [Compound 100] | 34.7

P = Cc1ncsc1-c1ccc(CNC(=O)[C@@H]2C[C@@H](O)CN2C(=O)[C@@H](NC(=O)CCOCCCOc2ccc(Nc3ncc(C(F)(F)F)c(NCc4cccc(N(C)S(C)(=O)=O)c4)n3)cc2)C(C)(C)C)cc1 [Compound 103]
Q = Cc1ncsc1-c1ccc(CNC(=O)[C@@H]2C[C@@H](O)CN2C(=O)[C@@H](NC(=O)COCCCOc2ccc(Nc3ncc(C(F)(F)F)c(NCc4cccc(N(C)S(C)(=O)=O)c4)n3)cc2)C(C)(C)C)cc1 [Compound 101]
## Input Could you tell me which of these two has the smaller concentration at 0.25 h figure? First: P Second: Q Pick one; state its label.
## Output Q

---

TEST DETAILS: Pharmacokinetics of intraperitoneal or intravenous injection in CD1 mice
Format: in vivo
CONDITIONS USED: male, CD1, mouse, plasma, ip, 10 mg/kg, IP 10 mg/kg, CD1 mice plasma, 2 h; read-out: Mean
PARAMETER: concentration at 2 h (ng/mL)

Example results:
Cc1ncsc1-c1ccc(CNC(=O)[C@@H]2C[C@@H](O)CN2C(=O)[C@@H](NC(=O)COCCOc2ccc(Nc3ncc(C(F)(F)F)c(NCc4cccc(N(C)S(C)(=O)=O)c4)n3)cc2)C(C)(C)C)cc1 | 1380
Cc1ncsc1-c1ccc(CNC(=O)[C@@H]2C[C@@H](O)CN2C(=O)[C@@H](NC(=O)CCOCCCOc2ccc(Nc3ncc(C(F)(F)F)c(NCc4cccc(N(C)S(C)(=O)=O)c4)n3)cc2)C(C)(C)C)cc1 | 2090
Cc1ncsc1-c1ccc(CNC(=O)[C@@H]2C[C@@H](O)CN2C(=O)[C@@H](NC(=O)CCOCCOc2ccc(Nc3ncc(C(F)(F)F)c(NCc4cccc(N(C)S(C)(=O)=O)c4)n3)cc2)C(C)(C)C)cc1 | 1490

A = Cc1ncsc1-c1ccc(CNC(=O)[C@@H]2C[C@@H](O)CN2C(=O)[C@@H](NC(=O)COCCCOc2ccc(Nc3ncc(C(F)(F)F)c(NCc4cccc(N(C)S(C)(=O)=O)c4)n3)cc2)C(C)(C)C)cc1
B = CN(c1cccc(CNc2nc(Nc3ccc(OCCCOCCC(=O)NCCOc4cccc5c4C(=O)N(C4CCC(=O)NC4=O)C5=O)cc3)ncc2C(F)(F)F)c1)S(C)(=O)=O (centres unmarked)
## Input I'd appreciate it if you could identify which of A and B has the greater concentration at 2 h. Pick one; state its label.
## Output A
(A: 1470 ng/mL, B: 50.4 ng/mL)

---

TEST DETAILS: Pharmacokinetics of intraperitoneal or intravenous injection in CD1 mice
Assay type: in vivo
CONDITIONS USED: male, CD1, mouse, plasma, ip, 10 mg/kg, IP 10 mg/kg, CD1 mice plasma, 8 h; read-out: Conc. (ng/mL) Mouse 2
PARAMETER: concentration at 8 h (ng/mL)

Example results:
Cc1ncsc1-c1ccc(CNC(=O)[C@@H]2C[C@@H](O)CN2C(=O)[C@@H](NC(=O)COCCOc2ccc(Nc3ncc(C(F)(F)F)c(NCc4cccc(N(C)S(C)(=O)=O)c4)n3)cc2)C(C)(C)C)cc1 | 111
Cc1ncsc1-c1ccc(CNC(=O)[C@@H]2C[C@@H](O)CN2C(=O)[C@@H](NC(=O)CCOCCOc2ccc(Nc3ncc(C(F)(F)F)c(NCc4cccc(N(C)S(C)(=O)=O)c4)n3)cc2)C(C)(C)C)cc1 | 92.3

P = Cc1ncsc1-c1ccc(CNC(=O)[C@@H]2C[C@@H](O)CN2C(=O)[C@@H](NC(=O)COCCCOc2ccc(Nc3ncc(C(F)(F)F)c(NCc4cccc(N(C)S(C)(=O)=O)c4)n3)cc2)C(C)(C)C)cc1
Q = Cc1ncsc1-c1ccc(CNC(=O)[C@@H]2C[C@@H](O)CN2C(=O)[C@@H](NC(=O)CCOCCCOc2ccc(Nc3ncc(C(F)(F)F)c(NCc4cccc(N(C)S(C)(=O)=O)c4)n3)cc2)C(C)(C)C)cc1
## Input I'd appreciate it if you could identify which of P and Q has the greater concentration at 8 h. Pick one; state its label.
## Output P
(P: 145 ng/mL, Q: 68.5 ng/mL)

---

TEST DETAILS: Pharmacokinetics of intraperitoneal or intravenous injection in CD1 mice
Type: in vivo
CONDITIONS USED: male, CD1, mouse, plasma, iv, 1 mg/kg, IV 1.0 mg/kg, CD1 mice plasma, 0.033 h; read-out: Conc. (ng/mL) Mouse 1
PARAMETER: concentration at 0.033 h (ng/mL)

Example results:
Cc1ncsc1-c1ccc(CNC(=O)[C@@H]2C[C@@H](O)CN2C(=O)[C@@H](NC(=O)COCCCOc2ccc(Nc3ncc(C(F)(F)F)c(NCc4cccc(N(C)S(C)(=O)=O)c4)n3)cc2)C(C)(C)C)cc1 [Compound 101] | 2100
Cc1ncsc1-c1ccc(CNC(=O)[C@@H]2C[C@@H](O)CN2C(=O)[C@@H](NC(=O)COCCOc2ccc(Nc3ncc(C(F)(F)F)c(NCc4cccc(N(C)S(C)(=O)=O)c4)n3)cc2)C(C)(C)C)cc1 [Compound 100] | 1320
Cc1ncsc1-c1ccc(CNC(=O)[C@@H]2C[C@@H](O)CN2C(=O)[C@@H](NC(=O)CCOCCOc2ccc(Nc3ncc(C(F)(F)F)c(NCc4cccc(N(C)S(C)(=O)=O)c4)n3)cc2)C(C)(C)C)cc1 [Compound 102] | 1920

I = Cc1ncsc1-c1ccc(CNC(=O)[C@@H]2C[C@@H](O)CN2C(=O)[C@@H](NC(=O)CCOCCCOc2ccc(Nc3ncc(C(F)(F)F)c(NCc4cccc(N(C)S(C)(=O)=O)c4)n3)cc2)C(C)(C)C)cc1 [Compound 103]
II = CN(c1cccc(CNc2nc(Nc3ccc(OCCCOCCC(=O)NCCOc4cccc5c4C(=O)N(C4CCC(=O)NC4=O)C5=O)cc3)ncc2C(F)(F)F)c1)S(C)(=O)=O (centres unmarked) [Compound 107]
## Input I'd appreciate it if you could identify which of I and II has the greater concentration at 0.033 h. Pick one; state its label.
## Output I
(I: 4370 ng/mL, II: 31.4 ng/mL)

---

TEST DETAILS: Pharmacokinetics of intraperitoneal or intravenous injection in CD1 mice
Type: in vivo
CONDITIONS USED: male, CD1, mouse, plasma, iv, 1 mg/kg, IV 1.0 mg/kg, CD1 mice plasma, 2 h; read-out: Conc. (ng/mL) Mouse 3
PARAMETER: concentration at 2 h (ng/mL)

Cc1ncsc1-c1ccc(CNC(=O)[C@@H]2C[C@@H](O)CN2C(=O)[C@@H](NC(=O)CCOCCOc2ccc(Nc3ncc(C(F)(F)F)c(NCc4cccc(N(C)S(C)(=O)=O)c4)n3)cc2)C(C)(C)C)cc1 [Compound 102] | 6.75
Cc1ncsc1-c1ccc(CNC(=O)[C@@H]2C[C@@H](O)CN2C(=O)[C@@H](NC(=O)COCCOc2ccc(Nc3ncc(C(F)(F)F)c(NCc4cccc(N(C)S(C)(=O)=O)c4)n3)cc2)C(C)(C)C)cc1 [Compound 100] | 3.98

1 = Cc1ncsc1-c1ccc(CNC(=O)[C@@H]2C[C@@H](O)CN2C(=O)[C@@H](NC(=O)CCOCCCOc2ccc(Nc3ncc(C(F)(F)F)c(NCc4cccc(N(C)S(C)(=O)=O)c4)n3)cc2)C(C)(C)C)cc1 [Compound 103]
2 = Cc1ncsc1-c1ccc(CNC(=O)[C@@H]2C[C@@H](O)CN2C(=O)[C@@H](NC(=O)COCCCOc2ccc(Nc3ncc(C(F)(F)F)c(NCc4cccc(N(C)S(C)(=O)=O)c4)n3)cc2)C(C)(C)C)cc1 [Compound 101]
## Input Could you tell me which of these two has the smaller concentration at 2 h figure? First: 1 Second: 2 Pick one; state its label.
## Output 2
